- Test system: HL-60
- ASSAY INFO: NCI tumour cell line growth inhibition, 48 h
Active and inactive are the calls of the source. Cut-off read from the data, not from the text of the source: active = GI50 up to about 1.1 µM and inactive = higher.
Reported GI50 values for the following compounds.

[
  {
    "SMILES REPRESENTATION": "O=Cc1ccc2ccocc1-2",
    "GI50": "> 100 µM (inactive)"
  },
  {
    "SMILES REPRESENTATION": "Cc1ccc(F)cc1NC(=O)O/N=C(\\Cl)C(C)C",
    "GI50": "2.32 µM (inactive)"
  },
  {
    "SMILES REPRESENTATION": "Cc1ccc(S(=O)(=O)c2c(N)c3nccn3c3nc4ccccc4nc23)cc1",
    "GI50": "> 100 µM (inactive)"
  },
  {
    "SMILES REPRESENTATION": "COc1cc2cc3c4c(cc(OC)c(OC)c4c2cc1OC)CCN3C(=O)CCC(=O)O",
    "GI50": "> 100 µM (inactive)"
  },
  {
    "SMILES REPRESENTATION": "CN(C)CCc1ccc(Cl)cc1Cl",
    "GI50": "> 100 µM (inactive)"
  },
  {
    "SMILES REPRESENTATION": "O=C(O)CCNCCCNCCC(=O)O",
    "GI50": "> 100 µM (inactive)"
  },
  {
    "SMILES REPRESENTATION": "C=C1c2ccccc2N(S(=O)(=O)c2ccc(C)cc2)C12CCCCC2",
    "GI50": "19.8 µM (inactive)"
  },
  {
    "SMILES REPRESENTATION": "O=c1c2ccccc2nc(-c2ccccc2)n1/N=C/c1ccccc1[N+](=O)[O-]",
    "GI50": "> 100 µM (inactive)"
  },
  {
    "SMILES REPRESENTATION": "CCOC(=O)C1=C(Nc2ccc(Cl)cc2Cl)OC/C1=N\\NS(=O)(=O)c1ccc(C)cc1",
    "GI50": "> 100 µM (inactive)"
  }
]

Data origin: ChEMBL document CHEMBL1201862
